// data source = ChEMBL document CHEMBL1143708

Test system: FM3A
Test: Inhibition of proliferation of thymidine kinase deficient mouse FM3A cells expressing HSV1 thymidine kinase
Assay type: functional, cell-based
reportedEndpoint: pIC50
Lab note — pIC50 values are minus log10 of concentrations in M.

Value (pIC50, FM3A) for record "CC(=O)OC[C@H]1O[C@@H](n2cc(C#CI)c(=O)[nH]c2=O)[C@@H](OC(C)=O)[C@@H]1OC(C)=O" = 5.27

Assay FM3A, sample "C[Si](C)(C)C#Cc1cn([C@@H]2O[C@H](CO)[C@@H](O)[C@@H]2O)c(=O)[nH]c1=O" , pIC50 read: 5.42

Form field pIC50 for item "O=c1[nH]c(=O)n([C@H]2C[C@H](O)[C@@H](CO)O2)cc1C#CI" on FM3A: 6.80

Item "C#Cc1cn([C@H]2C[C@H](O)[C@@H](CO)O2)c(=O)[nH]c1=O" ; assay system FM3A; pIC50 reported as 6.89

Summary: "C[Si](C)(C)C#Cc1cn([C@H]2C[C@H](O)[C@@H](CO)O2)c(=O)[nH]c1=O" , FM3A, pIC50 = 6.80
